tested on: Factor VII (FVII); test: In vivo determination of efficacy of lipid formulations: FVII knockdown in mice (Biophen FVII chromogenic assay); set-up: species or system mouse (C57Bl/6); conditions: FVII siRNA lipid formulation containing the cationic lipid; i.v. lateral tail vein; female C57Bl/6 mice; serum 24 hours later; dose resulting in a 50% reduction in plasma FVII levels compared to control animals
Sorting guide: entries reporting ED50 (Mouse FVII) beneath 0.02 mg/kg go in the Met pile, the rest go in the Not met pile.

Data request: Lab note: ED50 (Mouse FVII) threshold 0.02 mg/kg. Does this compound come in strictly under it? CCCCCC(CC)C(=O)OCCCCCCCCCC(CCCCCCCCCOC(=O)C(CC)CCCCC)OC(=O)CCCN(C)C (centres unmarked)
Data returned: Met

Data request: Please indicate whether the reported ED50 (Mouse FVII) of CN(C)CCCC(=O)OC(CCCCCCCCC(=O)OCCCC1CCCC1)CCCCCCCCC(=O)OCCCC1CCCC1 is strictly below 0.02 mg/kg.
Data returned: Not met

Data request: Does CC(OCCCCCCCCCC(CCCCCCCCCOC(=O)C1CCCCC1)OC(=O)CCCN(C)C)C1CCCCC1 (centres unmarked) have ED50 (Mouse FVII) strictly under 0.02 mg/kg?
Data returned: Not met

Data request: Regarding CCCCCCOC(=O)CCCCCCCCCCCC(CCCCCCCCCCCC(=O)OCCCCCC)OC(=O)CCCN(C)C , kindly confirm whether its ED50 (Mouse FVII) is beneath 0.02 mg/kg.
Data returned: Met

Data request: Consider CN(C)CCCC(=O)OC(CCCCCCCCC(=O)OC1CCCC1)CCCCCCCCC(=O)OC1CCCC1 . Does its ED50 (Mouse FVII) lie strictly below 0.02 mg/kg?
Data returned: Not met

Data request: ED50 (Mouse FVII) strictly < 0.02 mg/kg for this compound? CCCCC(C)C(=O)OCCCCCCCCCC(CCCCCCCCCOC(=O)C(C)CCCC)OC(=O)CCCN(C)C (centres unmarked)
Data returned: Not met

Data request: Would you kindly verify if ED50 (Mouse FVII) of CCCCC(CCCC)OC(=O)CCCCCC(CCCCCC(=O)OC(CCCC)CCCC)OC(=O)CCCN(C)C is strictly less than 0.02 mg/kg?
Data returned: Not met

Data request: Please state whether ED50 (Mouse FVII) is below 0.02 mg/kg for CN(C)CCCC(=O)OC(CCCCCCCCC(=O)OC1CCCCC1)CCCCCCCCC(=O)OC1CCCCC1
Data returned: Not met

Data request: Is ED50 (Mouse FVII) strictly under 0.02 mg/kg for the entry CCCCCC(CCCC)OC(=O)CCCCCCCCC(CCCCCCCCC(=O)OC(CCCC)CCCCC)OC(=O)CCCN(C)C (centres unmarked) ?
Data returned: Met

Data request: Quick check: ED50 (Mouse FVII) of CCCCC(CCCC)OC(=O)CCCCCCCCC(CCCCCCCCC(=O)OC(CCCC)CCCC)OC(=O)CCCN(C)C under 0.02 mg/kg?
Data returned: Met

Data request: In the record for CCCCC(CC)C(=O)OCCCCCCCCCC(CCCCCCCCCOC(=O)C(CC)CCCC)OC(=O)CCCN(C)C (centres unmarked) [drawing 162] , is ED50 (Mouse FVII) less than 0.02 mg/kg?
Data returned: Not met

Data request: Say whether its ED50 (Mouse FVII) is strictly beneath 0.02 mg/kg. Entry: CN(C)CCCC(=O)OC(CCCCCCCCCOC(=O)CCC1CCCC1)CCCCCCCCCOC(=O)CCC1CCCC1
Data returned: Not met

Data request: API: query returns whether the compound falls strictly under 0.02 mg/kg in ED50 (Mouse FVII). Query: CN(C)CCCC(=O)OC(CCCCCC(=O)OC1CCCC1)CCCCCC(=O)OC1CCCC1
Data returned: Not met

Data request: API: query returns whether the compound falls strictly under 0.02 mg/kg in ED50 (Mouse FVII). Query: CN(C)CCCC(=O)OC(CCCCCC(=O)OC1CCCCC1)CCCCCC(=O)OC1CCCC1 (centres unmarked)
Data returned: Not met

Data request: Could you please tell me whether ED50 (Mouse FVII) recorded for CN(C)CCCC(=O)OC(CCCCCCCCCOC(=O)C1CCCC1)CCCCCCCCCOC(=O)C1CCCC1 is less than 0.02 mg/kg?
Data returned: Not met

Data request: Check if ED50 (Mouse FVII) falls below 0.02 mg/kg for CCCCC(CC)C(=O)OCCCCCCCCCC(CCCCCCCCCOC(=O)C(CC)CCCC)OC(=O)CCCN(C)C (centres unmarked) [drawing 149] .
Data returned: Met
